Target: T1, human 5T4ECDHis (mature protein of SEQ ID NO: 99) (human, UniProt Q13641 32-355)
T1 construct: ECD of human 5T4 (aa 1-355 of Uniprot Q13641) with C-terminal His tag; residues 1-31 are the signal peptide; also called ECD of human 5T4 with a C-terminal His tag
T1 sequence: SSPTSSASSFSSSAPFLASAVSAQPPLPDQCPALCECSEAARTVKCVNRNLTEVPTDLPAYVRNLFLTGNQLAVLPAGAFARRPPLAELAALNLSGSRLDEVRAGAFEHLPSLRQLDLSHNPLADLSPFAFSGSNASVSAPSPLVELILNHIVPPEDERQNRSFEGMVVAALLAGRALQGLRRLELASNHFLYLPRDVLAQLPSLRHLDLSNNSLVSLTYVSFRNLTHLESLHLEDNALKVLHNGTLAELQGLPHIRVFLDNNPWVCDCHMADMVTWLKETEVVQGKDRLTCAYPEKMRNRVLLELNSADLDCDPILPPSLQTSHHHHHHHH
Assay: BLI cross-block; competitor (immobilised): IgG1-5T4-207-FEAR
reported-endpoint: corrected association response (nm)
# number only, unit nm dropped from output

binder	unit-of-measurement	readout-value
IgG1-5T4-A1-F405L (antibody, V domains shown, Variable region of A1 of WO2007106744 in a human IgG1 backbone with F405L; also called surrogate A1 antibody) VH: QIQLVQSGPELKKPGETVKISCKASGYTFTNFGMNWVKQGPGEGLKWMGWINTNTGEPRYAEEFKGRFAFSLETTASTAYLQINNLKNEDTATYFCARDWDGAYFFDYWGQGTTLTVSS VL: SIVMTQTPKFLLVSAGDRVTITCKASQSVSNDVAWYQQKPGQSPKLLINFATNRYTGVPNRFTGSGYGTDFTFTISTVQAEDLALYFCQQDYSSPWTFGGGTKLEIK	nm	1.29

Query: corrected association response for IgG1-5T4-H8-FEAR (antibody, V domains shown, Based on 5T4 antibody H8 from Wyeth (WO 2007/106744); IgG1 with L234F, L235E, D265A, K409R (FEAR); also called IgG1-5T4-HS-FEAR; IgG1-5T4-H8-FEAR-FITC) VH: EVQLQQSGPDLVKPGASVKISCKASGYSFTGYYMHWVKQSHGKSLEWIGRINPNNGVTLYNQKFKDKAILTVDKSSTTAYMELRSLTSEDSAVYYCARSTMITNYVMDYWGQVTSVTVSS VL: SIVMTQTPTFLLVSAGDRVTITCKASQSVSNDVAWYQQKPGQSPTLLISYTSSRYAGVPDRFIGSGYGTDFTFTISTLQAEDLAVYFCQQDYNSPPTFGGGTKLEIK ?
Response: -0.01

Query: Next: IgG1-5T4-076-FEAR (antibody, V domains shown, Monospecific, bivalent human IgG1 kappa with L234F, L235E, D265A, K409R (FEAR)) VH: QVQLVQSGAEVKKPGASVKVSCKASGYTFTSYGISWVRQAPGQGLEWMGWISAYNGNTNYAQKLQGRVTMTTDTSTRTAYMELRSLRSDDTAVYYCARDPGYFDWLYGDYWGQGTLVTVSS VL: AIQLTQSPSSLSASVGDRVTITCRASQGISSALAWYQQKPGKAPKLLIYDASSLESGVPSRFSGSGSGTDFTLTISSLQPEDFATYYCQQFNSYPRTFGQGTKVEIK
Response: 1.22
